Assay: self-splicing fitness, log relative to wild type (ln ratio); higher = more splicing; Tetrahymena group I intron in knt gene, E. coli kanamycin selection, DiMSum; sequences stand for … in CUCUCU…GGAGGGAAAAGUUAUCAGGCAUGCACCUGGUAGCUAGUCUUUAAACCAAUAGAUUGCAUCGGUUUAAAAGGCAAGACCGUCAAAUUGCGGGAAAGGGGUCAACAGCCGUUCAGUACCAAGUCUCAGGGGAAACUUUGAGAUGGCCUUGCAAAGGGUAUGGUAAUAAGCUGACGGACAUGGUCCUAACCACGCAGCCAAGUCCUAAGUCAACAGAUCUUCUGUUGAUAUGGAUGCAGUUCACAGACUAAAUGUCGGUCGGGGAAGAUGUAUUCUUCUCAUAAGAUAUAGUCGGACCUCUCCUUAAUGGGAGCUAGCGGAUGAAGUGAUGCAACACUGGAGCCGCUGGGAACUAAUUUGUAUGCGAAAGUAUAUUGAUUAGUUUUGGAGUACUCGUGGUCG;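 further: selection with 25 µg/mL kanamycin versus none on LB agar overnight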
Conditions: 37 °C
Would you kindly list self-splicing fitness (ln) for each of these sequences?
Lab note: record just the number, no unit beside it.

Quick one: self-splicing fitness (ln) of `GCAUAGCAAUAUUACGAAGA` ?
-0.497

Quick one: self-splicing fitness (ln) of `UGAUAGCAAUAUUACGACAG` ?
-1.59

Quick one: self-splicing fitness (ln) of `UAGUAGCAAUAUUACGACAC` ?
-1.67

Quick one: self-splicing fitness (ln) of `AUUAAGCAAUAUUACGUUAC` ?
-1.16

Quick one: self-splicing fitness (ln) of `CAGAAGCAAUAUUACGCUGC` ?
-2.34

Quick one: self-splicing fitness (ln) of `CGUCAGCAAUAUUACGUACU` ?
-0.361

Quick one: self-splicing fitness (ln) of `ACUUAGCAAUAUUACGCAAU` ?
-2.05

Quick one: self-splicing fitness (ln) of `CCACAGCAAUAUUACGGAUU` ?
-3.12

Quick one: self-splicing fitness (ln) of `CUCUAGCAAUAUUACGCGAA` ?
-3.56

Quick one: self-splicing fitness (ln) of `AGUUAGCAAUAUUACGUUCC` ?
-0.127

Quick one: self-splicing fitness (ln) of `CACGAGCAAUAUUACGAACA` ?
-2.04

Quick one: self-splicing fitness (ln) of `CAAGAGCAAUAUUACGGGAU` ?
-2.59

Quick one: self-splicing fitness (ln) of `CCCCAGCAAUAUUACGUCGU` ?
-2.05

Quick one: self-splicing fitness (ln) of `AGAGAGCAAUAUUACGUAUU` ?
-3.1

Quick one: self-splicing fitness (ln) of `AGUGAGCAAUAUUACGCUCU` ?
-2.1

Quick one: self-splicing fitness (ln) of `UGUCAGCAAUAUUACGUCUC` ?
-1.86
